measurementTarget: PI3K delta (Homo sapiens, UniProt O00329)
Construct: for the full-length p110-d subunit are generated and fused by overlapping PCR; His tag (C); Tn5 (Trichoplusia ni) or TiniPro insect cells
Sequence (O00329 with tags, fused parts or gaps limits assumed): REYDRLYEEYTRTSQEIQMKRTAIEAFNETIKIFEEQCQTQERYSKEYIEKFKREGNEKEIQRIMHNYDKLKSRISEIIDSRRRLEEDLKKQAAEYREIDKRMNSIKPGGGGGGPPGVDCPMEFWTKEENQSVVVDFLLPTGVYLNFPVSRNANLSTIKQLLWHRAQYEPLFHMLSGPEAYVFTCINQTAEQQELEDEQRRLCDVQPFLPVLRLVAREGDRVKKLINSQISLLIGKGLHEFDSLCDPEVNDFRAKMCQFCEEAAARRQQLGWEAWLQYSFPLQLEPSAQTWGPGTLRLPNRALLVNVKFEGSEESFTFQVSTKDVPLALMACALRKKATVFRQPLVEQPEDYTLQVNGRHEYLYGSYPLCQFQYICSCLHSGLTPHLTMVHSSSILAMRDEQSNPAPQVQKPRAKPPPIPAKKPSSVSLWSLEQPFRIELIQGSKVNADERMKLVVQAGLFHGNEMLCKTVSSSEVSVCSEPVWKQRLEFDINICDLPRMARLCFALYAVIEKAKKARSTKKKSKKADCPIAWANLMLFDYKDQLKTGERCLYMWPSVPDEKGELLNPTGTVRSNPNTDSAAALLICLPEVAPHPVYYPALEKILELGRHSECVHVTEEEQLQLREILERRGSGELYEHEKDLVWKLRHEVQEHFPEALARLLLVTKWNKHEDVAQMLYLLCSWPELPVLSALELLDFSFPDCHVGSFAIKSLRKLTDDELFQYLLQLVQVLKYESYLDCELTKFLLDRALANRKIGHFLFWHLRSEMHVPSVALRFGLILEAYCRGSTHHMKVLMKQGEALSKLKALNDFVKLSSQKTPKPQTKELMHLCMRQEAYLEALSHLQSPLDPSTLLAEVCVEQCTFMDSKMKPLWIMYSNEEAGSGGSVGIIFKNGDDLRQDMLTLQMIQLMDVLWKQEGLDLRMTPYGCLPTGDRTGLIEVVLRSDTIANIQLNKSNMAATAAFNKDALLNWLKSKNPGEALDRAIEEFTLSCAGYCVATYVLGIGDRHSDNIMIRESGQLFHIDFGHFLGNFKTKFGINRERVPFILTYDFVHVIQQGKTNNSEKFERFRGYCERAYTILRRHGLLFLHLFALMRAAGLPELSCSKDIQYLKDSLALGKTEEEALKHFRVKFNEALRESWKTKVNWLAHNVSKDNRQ
protocolDescription: PI3 kinase assay (Kinase-Glo luminescence), PI3K delta
settings: Enzymatic Data; read-out: PI3K delta IC50 [umol]
pIC50: −log10 of the molar value.
metric: pIC50

Some compounds with recorded pIC50:
# compoundStructureString, measurementTarget, numericReadout
data = [
    ("Nc1ncc(-c2cnc3ccc(-c4ccc(OCC5(NC(=O)C6CC6)COC5)cc4)nn23)cc1C(F)(F)F", "PI3K delta (Homo sapiens, UniProt O00329)", 6.55),
    ("Nc1ncc(-c2ccc3ncc(-c4ccc(C(=O)NCCN5CCS(=O)(=O)CC5)cc4F)n3n2)cc1C(F)(F)F", "PI3K delta (Homo sapiens, UniProt O00329)", 7.89),
    ("Nc1ncc(-c2ccc3ncc(-c4ccc(C(=O)NCCn5ccnc5)cc4F)n3n2)cc1C(F)(F)F", "PI3K delta (Homo sapiens, UniProt O00329)", 7.85),
]

(P) Nc1ncc(-c2ccc3ncc(-c4ccc(C(=O)NCCn5ccnc5)cc4)n3n2)cc1C(F)(F)F
(Q) NCCCOc1ccc(-c2ccc3ncc(-c4cnc(N)c(C(F)(F)F)c4)n3n2)cc1
Query: Could you kindly indicate whether P or Q has the higher pIC50 value? Reply with the label of the item you choose.
Reply: P
(P: 7.51, Q: 6.78)
